Target of assay: UniProtKB P15144
Sequence (P15144 whole entry): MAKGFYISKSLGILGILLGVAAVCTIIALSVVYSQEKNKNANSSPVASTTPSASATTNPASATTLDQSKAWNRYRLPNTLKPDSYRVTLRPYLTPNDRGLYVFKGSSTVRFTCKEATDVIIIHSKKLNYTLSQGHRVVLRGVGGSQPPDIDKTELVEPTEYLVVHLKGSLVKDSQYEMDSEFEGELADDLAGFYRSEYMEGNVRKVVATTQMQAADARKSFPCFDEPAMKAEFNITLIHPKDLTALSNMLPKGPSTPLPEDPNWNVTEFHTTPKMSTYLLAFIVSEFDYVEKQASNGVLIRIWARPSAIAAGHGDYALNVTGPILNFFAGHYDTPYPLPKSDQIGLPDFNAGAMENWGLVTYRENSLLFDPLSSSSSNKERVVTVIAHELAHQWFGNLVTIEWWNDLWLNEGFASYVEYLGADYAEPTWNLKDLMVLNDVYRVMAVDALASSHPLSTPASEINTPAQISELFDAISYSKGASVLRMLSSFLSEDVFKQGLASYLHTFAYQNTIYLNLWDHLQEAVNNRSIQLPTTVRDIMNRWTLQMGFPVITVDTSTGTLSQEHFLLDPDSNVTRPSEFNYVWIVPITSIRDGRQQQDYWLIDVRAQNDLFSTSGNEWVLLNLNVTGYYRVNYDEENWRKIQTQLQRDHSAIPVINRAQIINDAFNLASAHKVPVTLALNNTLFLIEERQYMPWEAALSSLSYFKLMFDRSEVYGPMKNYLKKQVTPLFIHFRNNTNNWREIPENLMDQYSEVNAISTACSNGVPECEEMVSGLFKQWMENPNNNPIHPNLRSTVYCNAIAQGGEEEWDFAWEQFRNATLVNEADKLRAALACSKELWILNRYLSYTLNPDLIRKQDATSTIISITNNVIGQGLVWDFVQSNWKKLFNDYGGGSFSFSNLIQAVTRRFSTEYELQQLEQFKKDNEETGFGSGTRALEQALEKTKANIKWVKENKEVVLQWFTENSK
Run description: Inhibitory activity against aminopeptidase N (APN) in human acute lymphoblastic leukemia MOLT-4 cell line
pIC50: −log10 of the molar value.
Below, each of the compounds is paired with its reported pIC50 value.
Parameter: pIC50

INSERT INTO results (smiles, parameter, prefix_operator, value_measured) VALUES
  ('Cc1cccc(C)c1N1C(=O)c2ccc([N+](=O)[O-])cc2C1=O', 'pIC50', '<', 3.47),
  ('CSc1ccccc1N1C(=O)c2cccc([N+](=O)[O-])c2C1=O', 'pIC50', '<', 3.50),
  ('Cc1cccc(C)c1N1C(=O)c2cccc([N+](=O)[O-])c2C1=O', 'pIC50', '<', 3.47),
  ('Cc1cccc(C)c1N1C(=O)c2cccc(N)c2C1=O', 'pIC50', '=', 3.96),
  ('CSc1ccccc1N1C(=O)c2cccc(O)c2C1=O', 'pIC50', '=', 3.87);

* * *

Below, each of the compounds is paired with its reported IC50 value.
Target of assay: Dipeptidyl peptidase 4 (Homo sapiens)
Sequence (P27487 whole entry): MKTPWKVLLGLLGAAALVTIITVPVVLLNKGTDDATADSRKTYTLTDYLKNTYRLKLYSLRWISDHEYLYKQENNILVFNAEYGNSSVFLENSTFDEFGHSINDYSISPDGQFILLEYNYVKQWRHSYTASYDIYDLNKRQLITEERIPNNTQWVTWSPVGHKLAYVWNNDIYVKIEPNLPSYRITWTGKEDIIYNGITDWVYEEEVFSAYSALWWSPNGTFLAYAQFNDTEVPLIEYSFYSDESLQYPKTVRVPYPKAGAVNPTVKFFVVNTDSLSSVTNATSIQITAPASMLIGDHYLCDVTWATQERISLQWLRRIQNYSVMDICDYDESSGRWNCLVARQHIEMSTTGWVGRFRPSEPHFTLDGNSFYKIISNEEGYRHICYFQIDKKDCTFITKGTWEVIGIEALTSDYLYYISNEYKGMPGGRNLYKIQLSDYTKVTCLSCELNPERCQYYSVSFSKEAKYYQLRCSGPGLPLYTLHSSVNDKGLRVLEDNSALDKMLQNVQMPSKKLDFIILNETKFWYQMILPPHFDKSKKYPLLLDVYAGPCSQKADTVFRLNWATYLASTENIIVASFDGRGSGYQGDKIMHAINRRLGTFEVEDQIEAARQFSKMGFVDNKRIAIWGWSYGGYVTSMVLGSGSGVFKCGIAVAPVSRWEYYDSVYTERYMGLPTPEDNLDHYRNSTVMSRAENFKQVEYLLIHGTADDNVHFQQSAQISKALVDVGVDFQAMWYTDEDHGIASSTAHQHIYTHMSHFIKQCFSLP
Run description: Inhibitory activity against Dipeptidylpeptidase IV (DPP IV) in human acute lymphoblastic leukemia MOLT-4 cell line
Parameter: IC50

INSERT INTO results (smiles, value_measured) VALUES
  ('CC(C)c1cccc(C(C)C)c1N1C(=S)c2c(F)c(F)c(F)c(F)c2C1=S', '36.7 µM'),
  ('CSc1ccccc1N1C(=O)c2cccc(O)c2C1=O', '226 µM'),
  ('CSc1ccccc1N1C(=O)c2cccc([N+](=O)[O-])c2C1=O', '> 318 µM'),
  ('CC(C)c1cccc(C(C)C)c1N1C(=O)c2cccc([N+](=O)[O-])c2C1=O', '> 284 µM'),
  ('CC(C)c1cccc(C(C)C)c1N1C(=O)c2ccccc2C1=S', '57.8 µM');
